- assay name: Drug concentration in Sprague-Dawley rat brain at 80 mg/kg, iv measured after 5 mins by reverse-phase HPLC method
- Format: ADME, organism-based
- test context: read-out: Ct
quantity name: concentration at 5 min
Include the unit right after the number.

Exercise: Endpoint output: concentration at 5 min of Cc1nc(C)c(/C=[N+](\[O-])C(C)(C)C)nc1C . Value?
Key: 650 µM
